Source of measurements: PubChem BioAssay AID1963971

Tested on: 953936-095-R-J2-PDC spheroids with HUVEC/MSC, viability
Procedure Text: Anticancer human tumor 953936-095-R-J2-PDC patient-derived cervical squamous cell carcinoma cell line growth inhibition [PI3K]
Particulars: curve of first compound; second compound 0.1 µM
For each record, write down the corresponding IC50.

{"Molecule": "CC(Cn1ccc(-c2ccc(C#N)c(Cl)c2)n1)NC(=O)c1cc(C(C)O)[nH]n1 (stereo unspecified) + Cc1nc(NC(=O)N2CCCC2C(N)=O)sc1-c1ccnc(C(C)(C)C(F)(F)F)c1", "Endpoint Result": "> 10000 nM"}
{"Molecule": "CC(=O)c1c(C)c2cnc(Nc3ccc(N4CCNCC4)cn3)nc2n(C2CCCC2)c1=O + Cc1nc(NC(=O)N2CCCC2C(N)=O)sc1-c1ccnc(C(C)(C)C(F)(F)F)c1", "Endpoint Result": "> 100 nM"}
{"Molecule": "CCCS(=O)(=O)Nc1ccc(F)c(C(=O)c2c[nH]c3ncc(-c4ccc(Cl)cc4)cc23)c1F + CC(Nc1ccc2c(c1)OCCn1cc(N3C(=O)OCC3C(F)F)nc1-2)C(N)=O", "Endpoint Result": "3260 nM"}
{"Molecule": "CC(C)n1nc(-c2ccc3oc(N)nc3c2)c2c(N)ncnc21 + CC(Nc1ccc2c(c1)OCCn1cc(N3C(=O)OCC3C(F)F)nc1-2)C(N)=O", "Endpoint Result": "1.4 nM"}
{"Molecule": "C[C@@H](NC(=O)c1ncnc(N)c1Cl)c1ncc(C(=O)Nc2cc(C(F)(F)F)c(Cl)cn2)s1 + COc1c(OCCCN2CCOCC2)ccc2c3n(c(=NC(=O)c4cnc(N)nc4)nc12)CCN3", "Endpoint Result": "< 31.6 nM"}

(Q) Look up and state reported IC50 for CC(C)n1nc(-c2ccc3oc(N)nc3c2)c2c(N)ncnc21 + CC(Nc1ncnc2nc[nH]c12)c1cc2cccc(Cl)c2c(=O)n1-c1ccccc1
(A) 29 nM

* * *

Tested on: 953936-095-R-J2-PDC spheroids with HUVEC/MSC, viability
Procedure Text: Anticancer human tumor 953936-095-R-J2-PDC cell line growth inhibition [PI3K];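 further: spheroids exposed to compounds for seven days before read-out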
Particulars: curve of first compound; second compound 10 µM
pIC50: −log10 of the molar value.
Measurement Type: pIC50

Would you please look over these solved cases?
{"Compound": "CC(Cn1ccc(-c2ccc(C#N)c(Cl)c2)n1)NC(=O)c1cc(C(C)O)[nH]n1 (stereo unspecified) + Cc1nc(NC(=O)N2CCCC2C(N)=O)sc1-c1ccnc(C(C)(C)C(F)(F)F)c1", "pIC50": "> 7.50"}
{"Compound": "CC(C)n1nc(-c2ccc3oc(N)nc3c2)c2c(N)ncnc21 + CC(Nc1ncnc2nc[nH]c12)c1cc2cccc(Cl)c2c(=O)n1-c1ccccc1", "pIC50": 7.95}
{"Compound": "CC(C)NCC(C(=O)N1CCN(c2ncnc3c2C(C)CC3O)CC1)c1ccc(Cl)cc1 (stereo unspecified) + Cc1nc(NC(=O)N2CCCC2C(N)=O)sc1-c1ccnc(C(C)(C)C(F)(F)F)c1", "pIC50": "> 7.50"}
{"Compound": "CCN1CCN(Cc2ccc(Nc3ncc(F)c(-c4cc(F)c5nc(C)n(C(C)C)c5c4)n3)nc2)CC1 + CC(Nc1ncnc2nc[nH]c12)c1cc2cccc(Cl)c2c(=O)n1-c1ccccc1", "pIC50": "< 6.00"}

Please state pIC50 for every compound in the list that follows.
1. CC1(C)CCC(Nc2ncc(C(F)(F)F)c(-c3c[nH]c4c(P(C)(C)=O)c(C#N)ccc34)n2)CN1 (stereo unspecified) + Cc1nc(NC(=O)N2CCCC2C(N)=O)sc1-c1ccnc(C(C)(C)C(F)(F)F)c1
2. C=CC(=O)N1CCN(c2nc(=O)n(-c3c(C)ccnc3C(C)C)c3nc(-c4c(O)cccc4F)c(F)cc23)C(C)C1 (stereo unspecified) + CC(Nc1ncnc2nc[nH]c12)c1cc2cccc(Cl)c2c(=O)n1-c1ccccc1

(A)
1. > 7.50
2. < 5.00

* * *

System: 953936-095-R-J2-PDC spheroids with HUVEC/MSC, viability
Procedure Text: Anticancer human tumor 953936-095-R-J2-PDC cell line growth inhibition [PI3K]; active means viability on the fitted dose curve at most 10% of control; inactive means the rest;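 further: spheroids exposed to compounds for seven days before read-out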
Particulars: second compound 1 µM; first compound 0.949 µM
Excerpt: Combinatorial screen of targeted agents with the PI3K inhibitors inavolisib, alpelisib, duvelisib, and copanlisib in multi-cell type tumor spheroids A high-throughput screen of multi-cell type tumor spheroids was designed to identify active combinations of targeted small molecules and PI3K pathway inhibitors. […] Compounds. […] If the clinical Cmax for an agent had not been determined, the highest concentration tested was 10 microM. […]
Entry note: the call must match one of 1 (yes) for active, 0 (no) for inactive

Recorded results for 3 compounds are shown here.
{"Compound": "Cn1cnc2c(F)c(Nc3ccc(Br)cc3Cl)c(C(=O)NOCCO)cc21 + COc1c(OCCCN2CCOCC2)ccc2c3n(c(=NC(=O)c4cnc(N)nc4)nc12)CCN3", "Category": "1 (yes)"}
{"Compound": "Cn1cnc2c(F)c(Nc3ccc(Br)cc3Cl)c(C(=O)NOCCO)cc21 + CC(Nc1ccc2c(c1)OCCn1cc(N3C(=O)OCC3C(F)F)nc1-2)C(N)=O", "Category": "1 (yes)"}
{"Compound": "Cn1cnc2c(F)c(Nc3ccc(Br)cc3Cl)c(C(=O)NOCCO)cc21 + Cc1nc(NC(=O)N2CCCC2C(N)=O)sc1-c1ccnc(C(C)(C)C(F)(F)F)c1", "Category": "0 (no)"}

# evaluate next
(Q) For Cn1cnc2c(F)c(Nc3ccc(Br)cc3Cl)c(C(=O)NOCCO)cc21 + CC(Nc1ncnc2nc[nH]c12)c1cc2cccc(Cl)c2c(=O)n1-c1ccccc1 , what call appears in the results of this test?
(A) 0 (no)

* * *

Test system: 953936-095-R-J2-PDC spheroids with HUVEC/MSC, viability
Procedure Text: Anticancer human tumor 953936-095-R-J2-PDC cell line growth inhibition [PI3K]; active = viability on the fitted dose curve at most 10% of control; inactive = the rest;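 further: spheroids exposed to compounds for seven days before read-out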
Particulars: second compound 1 µM; first compound 0.0949 µM
Select the matching outcome among active, inactive

Study these solved cases before continuing.
{"Compound": "Cn1cnc2c(F)c(Nc3ccc(Br)cc3Cl)c(C(=O)NOCCO)cc21 + COc1c(OCCCN2CCOCC2)ccc2c3n(c(=NC(=O)c4cnc(N)nc4)nc12)CCN3", "Category": "active"}
{"Compound": "Cn1cnc2c(F)c(Nc3ccc(Br)cc3Cl)c(C(=O)NOCCO)cc21 + CC(Nc1ncnc2nc[nH]c12)c1cc2cccc(Cl)c2c(=O)n1-c1ccccc1", "Category": "inactive"}
{"Compound": "Cn1cnc2c(F)c(Nc3ccc(Br)cc3Cl)c(C(=O)NOCCO)cc21 + CC(Nc1ccc2c(c1)OCCn1cc(N3C(=O)OCC3C(F)F)nc1-2)C(N)=O", "Category": "inactive"}

Please turn your attention to the following entry.
(Q) Per the assay record, what outcome was assigned to Cn1cnc2c(F)c(Nc3ccc(Br)cc3Cl)c(C(=O)NOCCO)cc21 + Cc1nc(NC(=O)N2CCCC2C(N)=O)sc1-c1ccnc(C(C)(C)C(F)(F)F)c1 ?
(A) inactive

* * *

System: 953936-095-R-J2-PDC spheroids with HUVEC/MSC, viability
Procedure Text: Anticancer human tumor 953936-095-R-J2-PDC cell line growth inhibition [PI3K];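 further: spheroids exposed to compounds for seven days before read-out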
Particulars: curve of first compound; second compound 1 µM
Description: Combinatorial screen of targeted agents with the PI3K inhibitors inavolisib, alpelisib, duvelisib, and copanlisib in multi-cell type tumor spheroids A high-throughput screen of multi-cell type tumor spheroids was designed to identify active combinations of targeted small molecules and PI3K pathway inhibitors. […] Compounds. […] If the clinical Cmax for an agent had not been determined, the highest concentration tested was 10 microM. […]
pIC50: −log10 of the molar value.
Exercise: state measured pIC50 for each of the molecules provided.

These solved cases illustrate the format of a correct answer.
{"Molecule": "CCCS(=O)(=O)Nc1ccc(F)c(C(=O)c2c[nH]c3ncc(-c4ccc(Cl)cc4)cc23)c1F + COc1c(OCCCN2CCOCC2)ccc2c3n(c(=NC(=O)c4cnc(N)nc4)nc12)CCN3", "pIC50": "> 7.50"}
{"Molecule": "C[C@@H](NC(=O)c1ncnc(N)c1Cl)c1ncc(C(=O)Nc2cc(C(F)(F)F)c(Cl)cn2)s1 + CC(Nc1ncnc2nc[nH]c12)c1cc2cccc(Cl)c2c(=O)n1-c1ccccc1", "pIC50": "< 5.00"}
{"Molecule": "CC1(C)CCC(Nc2ncc(C(F)(F)F)c(-c3c[nH]c4c(P(C)(C)=O)c(C#N)ccc34)n2)CN1 (stereo unspecified) + COc1c(OCCCN2CCOCC2)ccc2c3n(c(=NC(=O)c4cnc(N)nc4)nc12)CCN3", "pIC50": "> 7.50"}
{"Molecule": "C=CC(=O)N1CCN(c2nc(=O)n(-c3c(C)ccnc3C(C)C)c3nc(-c4c(O)cccc4F)c(F)cc23)C(C)C1 (stereo unspecified) + Cc1nc(NC(=O)N2CCCC2C(N)=O)sc1-c1ccnc(C(C)(C)C(F)(F)F)c1", "pIC50": "> 7.50"}
{"Molecule": "CC(C)NCC(C(=O)N1CCN(c2ncnc3c2C(C)CC3O)CC1)c1ccc(Cl)cc1 (stereo unspecified) + COc1c(OCCCN2CCOCC2)ccc2c3n(c(=NC(=O)c4cnc(N)nc4)nc12)CCN3", "pIC50": "> 7.50"}

State the recorded pIC50 for every item in the following list.
1. CC(C)n1nc(-c2ccc3oc(N)nc3c2)c2c(N)ncnc21 + COc1c(OCCCN2CCOCC2)ccc2c3n(c(=NC(=O)c4cnc(N)nc4)nc12)CCN3
2. C#Cc1c(F)ccc2cc(O)cc(-c3ncc4c(N5CC6CCC(C5)N6)nc(OCC56CCCN5CC(F)C6)nc4c3F)c12 (stereo unspecified) + Cc1nc(NC(=O)N2CCCC2C(N)=O)sc1-c1ccnc(C(C)(C)C(F)(F)F)c1
3. CNC(=O)c1ccc(N2C(=S)N(c3ccc(C#N)c(C(F)(F)F)c3)C(=O)C2(C)C)cc1F + Cc1nc(NC(=O)N2CCCC2C(N)=O)sc1-c1ccnc(C(C)(C)C(F)(F)F)c1
4. CCN1CCN(Cc2ccc(Nc3ncc(F)c(-c4cc(F)c5nc(C)n(C(C)C)c5c4)n3)nc2)CC1 + CC(Nc1ccc2c(c1)OCCn1cc(N3C(=O)OCC3C(F)F)nc1-2)C(N)=O
5. CC(=O)c1c(C)c2cnc(Nc3ccc(N4CCNCC4)cn3)nc2n(C2CCCC2)c1=O + Cc1nc(NC(=O)N2CCCC2C(N)=O)sc1-c1ccnc(C(C)(C)C(F)(F)F)c1
6. CC(=O)c1c(C)c2cnc(Nc3ccc(N4CCNCC4)cn3)nc2n(C2CCCC2)c1=O + CC(Nc1ccc2c(c1)OCCn1cc(N3C(=O)OCC3C(F)F)nc1-2)C(N)=O
7. C=CC(=O)N1CCN(c2nc(=O)n(-c3c(C)ccnc3C(C)C)c3nc(-c4c(O)cccc4F)c(F)cc23)C(C)C1 (stereo unspecified) + CC(Nc1ncnc2nc[nH]c12)c1cc2cccc(Cl)c2c(=O)n1-c1ccccc1
8. C[C@@H](NC(=O)c1ncnc(N)c1Cl)c1ncc(C(=O)Nc2cc(C(F)(F)F)c(Cl)cn2)s1 + COc1c(OCCCN2CCOCC2)ccc2c3n(c(=NC(=O)c4cnc(N)nc4)nc12)CCN3

(A)
> 9.50
> 7.50
7.28
> 8.50
> 9.50
> 9.50
< 5.00
> 7.50
